# MIC listing for each entry below
System: Staphylococcus aureus H 5996/08 methicillin resistant
Assay: microbe, parasite or virus in culture
Assay type: cell-based
Details: Staphylococcus aureus, MRSA, 24 h, read-out: MIC MRSA

Known MIC results, listed for orientation:
                                   compound  reported_measurement
0  O=C(c1ccc(Cl)cc1)N(C(=O)c1ccc(Cl)cc1)c1cnccn1              > 125 µM
1            CCc1ccc(C(=O)Nc2cnc(Cl)cn2)cc1              > 125 µM
2  CC1(C)S[C@@H]2[C@H](NC(=O)COc3ccccc3)C(=O)N2[C@H]1C(=O)O [Phen, phenoxymethylpenicillin, reference compound]                250 µM
3            O=C(Nc1cnc(Cl)cn1)c1ccc(Br)cc1              > 125 µM

INPUT: Look up MIC of `COc1ccccc1C(=O)Nc1cnc(Cl)cn1` and report it.
OUTPUT: > 125 µM

Attribution: paper PMC6225228
